system: NCI-H322M lung; test: NCI-60 one-dose screen, 48 h; settings: 10 µM unless noted
Compounds without any hit were thinned out: in the full panel of roughly 83,000, 20% have a hit. The source made the active and inactive calls. How the source made its calls: active means growth percent below 10; inactive means the rest.
Use one of these outcomes when replying: True (active), False (inactive)

Just curious, what result did `COc1cc(/C=C/C(=O)C(C(=O)/C=C/c2ccc(OC(=O)CCNc3nnc(C)s3)c(OC)c2)C(=O)CCNc2nnc(C)s2)ccc1OC(=O)CCNc1nnc(C)s1` get here? False

Could you kindly confirm the outcome this assay logged for `Cc1ccc(-c2cc(-c3ccccc3)n(-c3ccccc3)n2)cc1` ? False

Assay outcome for CC[C@H]1CN2CCc3cc(OC)c(OC)cc3C2C[C@@H]1CC1NCCc2cc(OC)c(OC)cc21 (stereo partly specified) : what was it? True

Called result for `CC(=O)c1ccc(NS(=O)(=O)c2ccc([N+](=O)[O-])cc2)cc1` False

Please indicate how the test categorized `COc1ccc(C(=O)/C=C/c2cccc(Nc3ccnc4cc(Cl)ccc34)c2)cc1` . False

Which outcome was assigned to `O=C(NCCNC(=O)Oc1cccc2ccccc12)Oc1cccc2ccccc12` in this test? False

So what was the verdict on `N#Cc1ncc(-c2ccc(C(F)(F)F)cc2)c(NC2CCCCCC2)n1` in this test? False

Hi, do you know how `COc1ccc([N+](=O)[O-])c(S(=O)(=O)c2ccc(Cl)cc2)n1` came out in this test? False

Field: outcome | Entry: O=c1ccn(C2CC=C(CO)O2)c(=O)[nH]1 (stereo unspecified) False

Given c1ccc2nc(N/N=C3\CCCCC3C3CCCCC3)ccc2c1 (stereo unspecified) , state the outcome it received in this test. False

Recorded call for `O=C(NCCCl)NCCN1c2nc3ccccc3cc2Sc2cc3ccccc3nc21` ? False

# outcome recorded in this test, key = `Cc1cc(C)c2c(N)c3cccc(C)c3nc2n1` True

Given `COc1cc(-c2nc3nc4sc(C)c(C)c4c(=O)n3[nH]2)cc(OC)c1OC` , state the outcome it received in this test. False

Recorded call for `COc1cccc(CCN2C(=O)CCC3=C2CCC3=O)c1` ? False

I would be grateful if you could indicate the recorded call for `CC(C)C[C@H](NC(=O)/C=C/Cn1ccc2ccccc2c1=O)B(O)O` . False

Each compound tested received a call. Report the one for `CSc1nc(Nc2ccc(S(=O)(=O)Nc3ccon3)cc2)c(C#N)c(-c2ccc(Cl)cc2)n1` . False

# lookup: test call for `NC(=NCCCCCCN=C(N)/N=C(\N)Nc1ccc(Cl)cc1)/N=C(\N)Nc1ccc(Cl)cc1` False

Field: outcome | Entry: C/C(=C\CCc1ccoc1)CC/C=C(\C)CCCC1COC(=O)C1 (stereo unspecified) False

Lab log entry: `O=C(c1ccccc1)c1ccc(Oc2ccc([N+](=O)[O-])cc2[N+](=O)[O-])cc1` — outcome as called in the assay? False

Recorded call for `Oc1c(Cl)cc(Oc2cc(Cl)c(O)c(CN3CCOCC3)c2)cc1CN1CCOCC1` ? False

Per the records of this test, what outcome belongs to `CCCCc1ccc(C(N)=O)nc1` ? False

* * *

system: KM12 colon; assay: NCI-60 one-dose screen, 48 h; settings: 10 µM unless noted
The panel holds about 83,000 compounds, 20% with a hit somewhere; the sample as a whole holds those more often. Activity calls are given as the source filed them. How the source made its calls: active means growth percent below 10; inactive means the rest.
Please state which outcome applies, choosing from active, inactive

Hi, sorry to bother you, what did the test record for `Cc1ncc(C(=O)Nc2ccc(CN3CCN(C)CC3)c(C(F)(F)F)c2)cc1C#Cc1cncc2ncccc12` ? inactive

# lookup: test call for `O=C(CNC(=O)c1cccc2ccccc12)Nc1ccccc1Cc1ccccc1` inactive

Record request — test call for Cc1ccc(C(NC(=O)c2ccccc2)c2ccc3cccnc3c2O)cc1 (configuration not stated) inactive

Can you look up the reported call for `CC[C@@H](c1ccc(O)c(O)c1)[C@@H](CC)c1ccc(O)c(O)c1` for me? inactive

# lookup: test call for `Cn1c(=O)c2[nH]c(=S)n(Cc3ccccc3)c2n(C)c1=O` inactive

Entry `O=C(NC1CCCCC1)c1ccc(Nc2ncnc3c2cnn3-c2ccccc2)cc1` : call = ? inactive

Could you kindly confirm the outcome this assay logged for `COc1ccc2ncccc2c1Cc1c(OC)ccc2ncccc12` ? inactive

Record lookup: outcome of this test for `CCSc1nc(Nc2ccc(S(=O)(=O)Nc3ccon3)cc2)c(C#N)c(-c2cccc(Br)c2)n1` ? inactive

Hi, do you know how CC1CN(CC(O)c2ccc(Br)cc2)CCO1 (configuration not stated) came out in this test? inactive

Look up the recorded call for `N/C(=N\C(N)=N\c1nc2ccccc2s1)c1ccnc(Cl)c1` in this test. inactive

Given `COc1ccc(CNC(=O)c2c(C)n([O-])c3ccccc3[n+]2=O)cc1` , state the outcome it received in this test. inactive

Given COc1cc(C2=NN(C=O)C(c3cccc(Nc4ccnc5cc(Cl)ccc45)c3)C2)cc(OC)c1OC (configuration not stated) , state the outcome it received in this test. inactive

Kindly provide the recorded test outcome for the following compound: CCSCC1CC(O)(c2ccccc2)C(c2ccccc2)C(c2ccc(Cl)cc2)O1 (configuration not stated) active

Hey, what did the test say about `O=C(Nc1ccccc1S)c1ccccc1` ? inactive

I'd appreciate the recorded outcome for O=c1ccn(C2CC=C(CO)O2)c(=O)[nH]1 (configuration not stated) from this test. inactive

Call for entry COC(=O)Nc1ccc2ccc3c(NC(=O)OC)ccc4ccc1c2c43 (tested in a mixture with another compound) : inactive

Short answer needed: outcome of this test for `O=C(c1ccc(Cl)cc1)c1ccc(Cl)cc1` ? inactive

In this assay, the call recorded for `Nc1nc2c(c(=O)[nH]1)C1(C(=O)Nc3ccccc31)c1c(nc(N)[nH]c1=O)N2` was what? inactive

Hi team, can someone confirm the assay call for `COc1cc(-c2nc3sc4c(c3c(=O)[nH]2)CCCCCC4)cc(OC)c1OC` ? inactive

Recorded call for `COc1cnc2c(c1)C(=O)c1c-2n(CCCN2CCNCC2)c(=O)c2cc(F)ccc12` ? active

Outcome? `O=C(CNC(=O)c1cccc2ccccc12)Nc1ccccc1Oc1ccc(O)cc1` inactive

What was the test verdict on `Cc1cnc2nc(-c3ccc(N(C)C)cc3)cn2c1` ? inactive

* * *

test system: U251 CNS; assay: NCI-60 one-dose screen, 48 h (100 = growth as untreated, 0 = no growth, -100 = all killed); conditions: 10 µM unless noted
Compounds without any hit were thinned out: in the full panel of roughly 83,000, 20% have a hit.
Value Kind: growth (%)
Dear colleague, please return just the value in %, with no unit written.

Quick check: growth of `COc1cc(/C=C/c2cc(/C=C/c3ccc(O)c(OC)c3)n(C(=O)c3ccc(Cl)cc3)n2)ccc1O` ? 16.8

Which growth reading was recorded for the compound `CC(=O)c1ccc(NS(=O)(=O)c2ccc([N+](=O)[O-])cc2)cc1` ? 103

Return reported growth; argument: `CC(=O)Nc1ccc(C(=O)COc2cccc(/C=C3\CCc4ccccc4C3=O)c2)cc1` 83.4

I'd like to know its growth. The compound in question is C=C1CCC2C3(C)COC(c4ccccc4)OC3CCC2(C)C1C/C=C1/C(=O)OCC1OC(C)=O (stereo unspecified) 71.2

What value of growth has been reported for the following compound? `Cc1ccc2nc(-c3ccc(N(C)C)c(Br)c3)cn2c1` 49.1

If you can, please state the reported growth value of `Cc1ccc(-c2csc(N)n2)cc1` . 92.9

Consider the compound `CCOC(=O)c1sc(NC(=O)COc2cccc(/C=C3\CCc4cc(OC)ccc4C3=O)c2)nc1C` and give its measured growth. 41.1

Give the measured growth of C[N+]1(C)C2CC[C@@H]1CC(OC(=O)C(O)c1ccccc1)C2 (stereo partly specified) . 98.5

Consider the compound `C[C@@H]1C[C@@H]([C@@H](CC2CC(=O)NC(=O)C2)OC(=O)CC(=O)c2ccccc2)C(=O)[C@@H](C)C1` and give its measured growth. 14.7

Can you look up the measured growth of `O=C(O)C1CCN(S(=O)(=O)c2ccc(-c3ccccc3)cc2)CC1` for me? 104

growth lookup needed for CC(=O)N1N=C(c2ccc(C(F)(F)F)cc2)CC1c1ccc2c(c1)OCO2 (stereo unspecified) , thanks. 94.6

So what's the measured growth for this one? `C/C(=C\CCc1ccoc1)CC/C=C(\C)CCCNc1ccc(F)cc1` 94.2

What measured growth goes with `Nc1ccccc1C#Cc1ccccc1C#Cc1ccc(OCCCCCCOc2ccc(C#Cc3ccccc3C#Cc3ccccc3N)cc2)cc1` ? 100

Consider the compound shown here: `O=C(COc1ccc(/C=C2\Oc3ccc4ccccc4c3C2=O)cc1)c1ccc(Cl)cc1` What is its recorded growth? 94.7

Dear colleague, I am looking for the recorded growth of the following compound: `O=C(N/N=C/c1cccc([N+](=O)[O-])c1)c1ccc(Br)o1` 110

Can you look up the measured growth of `CCN(CC)c1ccc(/C=C/C(=O)c2cccc(NS(C)(=O)=O)c2)cc1` for me? 41.6

What measured growth goes with CCOC1Oc2ccccc2C(=O)/C1=N/c1nccs1 (stereo unspecified) ? 82

Could you tell me which growth is on file for `Cc1cc(Br)c(C)cc1Br` ? 98.9

I would be grateful if you could share the reported growth for COc1ccc(C2=NN(C(C)=O)C(c3cccc(Nc4ccnc5cc(Cl)ccc45)c3)C2)cc1 (stereo unspecified) . 51

# query: growth of entry `O=C(COc1ccc(/C=C2\Oc3ccc4ccccc4c3C2=O)cc1)c1ccc([N+](=O)[O-])cc1` 94.4

Can you look up the measured growth of Fc1ccccc1C1c2ccccc2-c2nccn21 (stereo unspecified) for me? 98.8
